Measured Dmax, listed per entry for reference.
Target: SMARCA2 (Homo sapiens)
Test: MSD SMARCA2 degradation in A549 cell line
Assay type: cell-based
Conditions: A549, A549 cells, 24 h
Description: Example 10. MSD SMARCA2 Degradation in A549 Cell Line Cells were seeded into 96-well plates (A549 cells: 2×10^4 cells/well/100 ul media) and incubated overnight. […] The MSD plate was washed three times with 150 uL/well of TBST and 150 ul/well of 2× MSD reading buffer diluted from 4× (MSD, R92TC-2) with water was added. Lastly, the MSD instrument was read. […]

Worked examples follow.
molecule: C#Cc1ccc(CNC(=O)[C@@H]2C[C@@H](O)CN2C(=O)[C@@H](NC(=O)N2CC3(CC(N4CCC5(CCN(c6cnc(N7CCc8[nH]c9nnc(-c%10ccccc%10O)cc9c8C7C)nc6)C5)C4)C3)C2)C(C)(C)C)cc1 (stereo partly drawn) [I-173]
target: SMARCA2 (Homo sapiens)
property: Dmax
result: > 90%
--
molecule: C#Cc1ccc(C2(NC(=O)[C@@H]3C[C@@H](O)CN3C(=O)[C@@H](NC(=O)[C@H]3CC4(C3)C[C@H](N3CCC(N5CCC(N6CCN7c8cc(-c9ccccc9O)nnc8NC[C@H]7C6)CC5)CC3)C4)C(C)(C)C)CC2)cc1 (single isomer, unassigned) [I-211]
target: SMARCA2 (Homo sapiens)
property: Dmax
result: > 90%
--
molecule: C#Cc1ccc(CNC(=O)[C@@H]2C[C@@H](O)CN2C(=O)[C@@H](NC(=O)N2CCO[C@H](CN3CCC(N4CCC(N5CCN6c7cc(-c8ccccc8O)nnc7NC[C@H]6C5)CC4)CC3)C2)C(C)(C)C)cc1 [I-219]
target: SMARCA2 (Homo sapiens)
property: Dmax
result: 50 to 70%
--
molecule: C#Cc1ccc(CNC(=O)[C@@H]2C[C@@H](O)CN2C(=O)[C@@H](NC(=O)N2CCN(C[C@H]3CC[C@H](N4CCC(N5CCc6[nH]c7nnc(-c8ccccc8O)cc7c6[C@H]5C)CC4)CC3)CC2)C(C)(C)C)cc1 [I-194]
target: SMARCA2 (Homo sapiens)
property: Dmax
result: 70 to 90%
--
molecule: C#Cc1ccc(CNC(=O)[C@@H]2C[C@@H](O)CN2C(=O)[C@@H](NC(=O)N2CC3(CC(N4CCC(c5cnc(N6CCc7[nH]c8nnc(-c9ccccc9O)cc8c7[C@H]6C)nc5)CC4)C3)C2)C(C)(C)C)cc1OC [I-319]
target: SMARCA2 (Homo sapiens)
property: Dmax
result: > 90%
--
molecule: C#Cc1ccc(CNC(=O)[C@@H]2C[C@@H](O)CN2C(=O)[C@@H](NC(=O)CN2CCC(N3CC4(CC(N5CCN6c7cc(-c8ccccc8O)nnc7NC[C@H]6C5)C4)C3)CC2)C(C)(C)C)cc1 [I-252]
target: SMARCA2 (Homo sapiens)
property: Dmax
result: > 90%

Exam item: Provide only the value of recorded Dmax for CC#Cc1ccc(CNC(=O)[C@@H]2C[C@@H](O)CN2C(=O)[C@@H](NC(=O)N2CC3(CC(N4CCC(c5cnc(N6CCc7[nH]c8nnc(-c9ccccc9O)cc8c7[C@H]6C)nc5)CC4)C3)C2)C(C)(C)C)cc1 [I-121]
Marked response: > 90%

Exam item: Dear colleague, please send me the reported Dmax for C#Cc1ccc(CNC(=O)[C@@H]2C[C@@H](O)CN2C(=O)[C@@H](NC(=O)N2CC3(CC(N4CCC(c5cnc(N6CCc7[nH]c8nnc(-c9ccccc9O)cc8c7[C@H]6CO)nc5)CC4)C3)C2)C(C)(C)C)c(Cl)c1 [I-318] when you can.
Marked response: > 90%

Exam item: Answer with the recorded Dmax for the molecule listed here: C#Cc1ccc(CNC(=O)[C@@H]2C[C@@H](O)CN2C(=O)[C@@H](NC(=O)C2CCC3(CC2)CC(N2CCC(N4CCC[C@H](C(=O)N5CCN6c7cc(-c8ccccc8O)nnc7NC[C@H]6C5)C4)CC2)C3)C(C)(C)C)cc1 (single isomer, unassigned) [I-90]
Marked response: 70 to 90%

---

Recorded DC50, one value per entry.
Target: SMARCA2 (Homo sapiens, UniProt P51531)
Sequence (P51531 whole entry): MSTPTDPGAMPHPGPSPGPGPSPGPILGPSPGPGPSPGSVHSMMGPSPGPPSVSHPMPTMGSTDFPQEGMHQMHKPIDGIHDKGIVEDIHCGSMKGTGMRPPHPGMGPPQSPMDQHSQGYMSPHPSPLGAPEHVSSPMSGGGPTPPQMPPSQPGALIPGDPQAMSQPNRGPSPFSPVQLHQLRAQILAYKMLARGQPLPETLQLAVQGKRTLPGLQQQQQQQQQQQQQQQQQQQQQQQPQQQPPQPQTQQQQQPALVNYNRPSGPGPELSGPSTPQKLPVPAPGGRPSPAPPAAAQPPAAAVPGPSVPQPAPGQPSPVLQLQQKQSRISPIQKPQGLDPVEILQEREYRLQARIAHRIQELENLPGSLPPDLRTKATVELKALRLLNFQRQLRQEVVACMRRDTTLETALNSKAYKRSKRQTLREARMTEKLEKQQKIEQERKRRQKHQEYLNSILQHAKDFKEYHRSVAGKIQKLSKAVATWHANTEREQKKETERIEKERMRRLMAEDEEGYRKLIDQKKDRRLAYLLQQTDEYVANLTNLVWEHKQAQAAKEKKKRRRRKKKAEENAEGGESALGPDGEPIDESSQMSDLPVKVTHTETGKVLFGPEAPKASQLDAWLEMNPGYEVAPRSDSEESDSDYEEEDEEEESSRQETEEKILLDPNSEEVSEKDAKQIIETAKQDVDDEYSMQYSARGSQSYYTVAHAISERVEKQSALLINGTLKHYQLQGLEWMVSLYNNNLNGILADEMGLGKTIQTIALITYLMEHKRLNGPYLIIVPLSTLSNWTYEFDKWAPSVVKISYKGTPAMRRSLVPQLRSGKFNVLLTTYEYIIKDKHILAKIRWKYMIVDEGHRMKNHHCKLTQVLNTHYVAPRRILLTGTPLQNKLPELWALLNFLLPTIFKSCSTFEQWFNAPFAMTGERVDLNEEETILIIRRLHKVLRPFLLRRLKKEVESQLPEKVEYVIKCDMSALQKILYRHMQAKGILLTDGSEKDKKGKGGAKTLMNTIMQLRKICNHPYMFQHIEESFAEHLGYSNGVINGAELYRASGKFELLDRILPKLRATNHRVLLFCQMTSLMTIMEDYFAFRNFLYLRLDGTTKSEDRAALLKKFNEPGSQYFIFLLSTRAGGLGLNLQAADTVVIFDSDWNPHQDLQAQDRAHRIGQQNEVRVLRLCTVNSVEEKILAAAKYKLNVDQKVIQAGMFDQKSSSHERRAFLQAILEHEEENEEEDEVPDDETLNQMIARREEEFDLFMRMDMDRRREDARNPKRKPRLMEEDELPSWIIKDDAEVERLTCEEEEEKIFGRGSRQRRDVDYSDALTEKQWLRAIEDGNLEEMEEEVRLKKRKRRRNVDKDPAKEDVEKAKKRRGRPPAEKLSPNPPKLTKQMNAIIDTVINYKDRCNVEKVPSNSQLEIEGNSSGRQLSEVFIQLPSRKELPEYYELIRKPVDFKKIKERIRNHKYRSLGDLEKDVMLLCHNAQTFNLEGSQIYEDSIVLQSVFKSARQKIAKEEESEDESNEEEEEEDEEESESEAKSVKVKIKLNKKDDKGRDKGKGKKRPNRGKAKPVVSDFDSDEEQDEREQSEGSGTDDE
Experiment: SMARCA2 Western blot degradation in MV4-11 cells
Format: cell-based
Parameters: SMARCA2/SMARCA4 protein degradation selectivity in MV4-11 cells; endogenous in cells; host or cells: MV4-11
Conditions: MV4-11 cells, 24 h; read-out: SMARCA2 MSD MV411 degradation 24 h: Mean external-Abs DC50

compound: C#Cc1ccc(CNC(=O)[C@@H]2C[C@@H](O)CN2C(=O)[C@@H](NC(=O)N2CC3(CN(CC4CCN(c5cnc(N6CCc7[nH]c8nnc(-c9ccccc9O)cc8c7[C@H]6C)nc5)CC4)C3)C2)C(C)(C)C)cc1
target: SMARCA2 (Homo sapiens, UniProt P51531)
DC50: 10 to 100 nM
--
compound: C#Cc1ccc(CNC(=O)[C@@H]2C[C@@H](O)CN2C(=O)[C@@H](NC(=O)N2CCN(C[C@H]3CC[C@H](N4CCC(N5CCN6c7cc(-c8ccccc8O)nnc7NC[C@H]6C5)CC4)CC3)CC2)C(C)(C)C)cc1
target: SMARCA2 (Homo sapiens, UniProt P51531)
DC50: 10 to 100 nM
--
compound: C#Cc1ccc([C@H](CCO)NC(=O)[C@@H]2C[C@@H](O)CN2C(=O)[C@@H](NC(=O)N2CC3(CC(N4CCC(c5cnc(N6CCc7[nH]c8nnc(-c9ccccc9O)cc8c7[C@H]6C)nc5)CC4)C3)C2)C(C)(C)C)cc1
target: SMARCA2 (Homo sapiens, UniProt P51531)
DC50: 1 to 10 nM

Exam item: Respond only with DC50 recorded for C#Cc1ccc(CNC(=O)[C@@H]2C[C@@H](O)CN2C(=O)[C@@H](NC(=O)N2CCN(C[C@H]3CCN(c4cnc(N5CCc6[nH]c7nnc(-c8ccccc8O)cc7c6[C@H]5C)nc4)C3)CC2)C(C)(C)C)cc1 (single isomer, unassigned)
Marked response: 10 to 100 nM

Exam item: Kindly indicate its recorded DC50. Item: C#Cc1ccc(CNC(=O)[C@@H]2C[C@@H](O)CN2C(=O)[C@@H](NC(=O)[C@H]2CCC3(CC2)C[C@H](N2CCC(c4ccc(N5CCN6c7cc(-c8ccccc8O)nnc7NC[C@H]6C5)nc4)CC2)C3)C(C)(C)C)cc1 (single isomer, unassigned) [I-155]
Marked response: 1 to 10 nM

Exam item: Provide measured DC50 value, entry: Cc1ncsc1-c1ccc(CNC(=O)[C@@H]2C[C@@H](O)CN2C(=O)[C@@H](NC(=O)[C@H]2CC3(C2)C[C@H](N2CCN(c4cnc(N5CCN6c7cc(-c8ccccc8O)nnc7NC[C@H]6C5)nc4)CC2)C3)C(C)(C)C)cc1 (some centres unmarked) [I-19]
Marked response: 1 to 10 nM

Exam item: Return DC50 (reported value) for this compound: Cc1ncsc1-c1ccc(CNC(=O)[C@@H]2C[C@@H](O)CN2C(=O)C(c2cc(N3CCC(CCN4CCC(c5cnc(N6CCc7[nH]c8nnc(-c9ccccc9O)cc8c7[C@@H]6C)nc5)CC4)CC3)no2)C(C)C)cc1 (single isomer, unassigned)
Marked response: 1 to 10 nM

Exam item: For the compound `C#Cc1ccc(CNC(=O)[C@@H]2C[C@@H](O)CN2C(=O)[C@H](NC(=O)N2CC3(CC(N4CCC(c5cnc(N6CCc7[nH]c8nnc(-c9ccccc9O)cc8c7[C@H]6C)nc5)CC4)C3)C2)C(C)(C)CCN2CCNCC2)cc1` , report DC50.
Marked response: > 100 nM

---

Each record here notes measured Dmax.
Molecular target: SMARCA4 (Homo sapiens)
Construct: SMARCA2/SMARCA4 protein degradation selectivity in MV4-11 cells; endogenous in cells; host or cells: MV4-11
Sequence (P51532 whole entry): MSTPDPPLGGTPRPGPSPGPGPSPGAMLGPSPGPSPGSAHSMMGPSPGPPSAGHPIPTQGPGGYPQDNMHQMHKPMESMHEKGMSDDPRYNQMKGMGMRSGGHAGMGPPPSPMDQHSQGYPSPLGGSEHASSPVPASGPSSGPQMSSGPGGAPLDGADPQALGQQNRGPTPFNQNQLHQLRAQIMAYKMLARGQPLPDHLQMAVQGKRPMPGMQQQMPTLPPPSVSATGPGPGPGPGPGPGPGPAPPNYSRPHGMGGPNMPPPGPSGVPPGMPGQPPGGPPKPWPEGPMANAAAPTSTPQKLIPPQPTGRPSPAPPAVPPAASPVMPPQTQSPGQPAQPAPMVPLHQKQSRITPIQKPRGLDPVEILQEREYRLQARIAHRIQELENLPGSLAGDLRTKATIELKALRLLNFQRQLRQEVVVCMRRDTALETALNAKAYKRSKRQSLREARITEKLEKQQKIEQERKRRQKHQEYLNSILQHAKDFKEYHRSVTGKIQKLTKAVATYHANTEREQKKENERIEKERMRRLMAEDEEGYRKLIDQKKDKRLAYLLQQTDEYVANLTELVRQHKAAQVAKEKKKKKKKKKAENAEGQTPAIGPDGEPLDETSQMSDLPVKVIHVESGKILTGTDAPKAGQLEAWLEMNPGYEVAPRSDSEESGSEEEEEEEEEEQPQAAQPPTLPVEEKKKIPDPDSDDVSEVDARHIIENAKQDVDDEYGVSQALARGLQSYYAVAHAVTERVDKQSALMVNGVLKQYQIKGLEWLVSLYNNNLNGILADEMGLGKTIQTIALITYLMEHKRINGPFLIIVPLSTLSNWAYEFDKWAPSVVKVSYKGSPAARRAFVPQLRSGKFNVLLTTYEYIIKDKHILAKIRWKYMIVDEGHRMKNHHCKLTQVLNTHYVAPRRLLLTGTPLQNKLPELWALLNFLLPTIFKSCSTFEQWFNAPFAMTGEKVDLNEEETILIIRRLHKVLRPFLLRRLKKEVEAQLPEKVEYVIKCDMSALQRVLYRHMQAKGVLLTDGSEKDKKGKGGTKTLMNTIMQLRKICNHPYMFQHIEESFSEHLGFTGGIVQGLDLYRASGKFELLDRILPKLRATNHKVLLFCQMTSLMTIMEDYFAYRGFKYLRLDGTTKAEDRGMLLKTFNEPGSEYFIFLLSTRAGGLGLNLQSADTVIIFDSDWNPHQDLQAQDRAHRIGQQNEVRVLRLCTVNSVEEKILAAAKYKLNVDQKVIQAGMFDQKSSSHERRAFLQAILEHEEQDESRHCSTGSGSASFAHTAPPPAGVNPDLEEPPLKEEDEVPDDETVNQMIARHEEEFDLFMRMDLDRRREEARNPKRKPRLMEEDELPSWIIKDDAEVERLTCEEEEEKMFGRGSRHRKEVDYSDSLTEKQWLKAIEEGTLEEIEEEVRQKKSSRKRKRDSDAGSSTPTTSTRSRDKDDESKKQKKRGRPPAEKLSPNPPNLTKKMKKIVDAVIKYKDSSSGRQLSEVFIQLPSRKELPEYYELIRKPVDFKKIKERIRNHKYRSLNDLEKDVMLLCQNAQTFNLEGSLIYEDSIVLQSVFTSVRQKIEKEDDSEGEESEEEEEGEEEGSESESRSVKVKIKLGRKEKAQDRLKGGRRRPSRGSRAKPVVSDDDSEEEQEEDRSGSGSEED
Assay: SMARCA4 Western blot degradation in MV4-11 cells
Type: cell-based
Details: MV4-11, MV4-11 cells, 24 h; read-out: SMARCA4 MSD MV411 degradation 24 h: average Dmax %

Some solved cases for reference:
compound: C#Cc1ccc(CNC(=O)[C@@H]2C[C@@H](O)CN2C(=O)[C@H](NC(=O)N2CC3(CC(N4CCC(c5cnc(N6CCc7[nH]c8nnc(-c9ccccc9O)cc8c7[C@H]6C)nc5)CC4)C3)C2)C(C)(C)CCN2CCOCC2)cc1 (single isomer, unassigned)
Dmax: < 50%
//
compound: C#Cc1ccc([C@H](CCO)NC(=O)[C@@H]2C[C@@H](O)CN2C(=O)[C@@H](NC(=O)N2CC3(CC(N4CCC(c5cnc(N6CCc7[nH]c8nnc(-c9ccccc9O)cc8c7[C@H]6C)nc5)CC4)C3)C2)C(C)(C)C)cc1
Dmax: < 50%
//
compound: C#Cc1ccc(CNC(=O)[C@@H]2C[C@@H](O)CN2C(=O)C(c2cc(N3CCC(CN4CCC(N5CCC(N6CCN7c8cc(-c9ccccc9O)nnc8NC[C@H]7C6)CC5)CC4)CC3)no2)C(C)C)c(Cl)c1 (stereo partly shown)
Dmax: > 90%

For the next question, use this compound.
Exam item: Supply Dmax value. Item: CC(C)C(C(=O)N1C[C@H](O)C[C@H]1C(=O)N[C@@H](C)C#Cc1ccccc1)c1cc(OCCN2CCC(N3CCC(N4CCC(CN5CCN6c7cc(-c8ccccc8O)nnc7NC[C@H]6C5)CC4)CC3)CC2)no1 (stereo partly shown)
Marked response: < 50%

Every entry's value here was drawn from patent US20250170248A1.
